Values were extracted from patent US6670176B1.

Test system: FA(C) lymphoblast cell lines BD0215 and HSC536
Experiment description: Lymphoblast mitomycin C (MMC) sensitivity, Trypan blue exclusion
Assay type: cell-based, human
Particulars: parental FA(C) lymphoblasts, 5 d incubation; read-out: EC50 of MMC, cell viability
pEC50: −log10 of the molar value.
Readout name: pEC50

>  <Compound>
CO[C@@]12[C@H](COC(N)=O)C3=C(C(=O)C(C)=C(N)C3=O)N1C[C@@H]1N[C@@H]12 [MMC, mitomycin C]

>  <Value reported>
8.30 to 9.00

$$$$
